- measuredTarget: T1, CBD-toxin A-Fc (Clostridium difficile, UniProt P16154 1848-2710)
- T1 construct: also called CBD-A; C-term Toxin A
- testMethodNotes: SPR Biacore, mAb captured, 100 nM CBD-A-Fc flowed
// classify(record): look up binding (RU) in ranges zone 1 = under 1 RU, zone 2 = from 1 RU up to 40 RU, zone 3 = 40 RU and over

{"binder": "H1H3339P (antibody, V domains shown) VH: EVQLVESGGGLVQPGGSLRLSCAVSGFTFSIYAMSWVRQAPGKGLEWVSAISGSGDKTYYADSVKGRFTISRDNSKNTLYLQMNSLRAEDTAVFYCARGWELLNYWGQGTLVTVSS VL: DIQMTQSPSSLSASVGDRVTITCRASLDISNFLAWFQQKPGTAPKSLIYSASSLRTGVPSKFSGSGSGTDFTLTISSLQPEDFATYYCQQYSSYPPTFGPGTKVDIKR", "labelValue": "zone 2"}
{"binder": "H1H3343P (antibody, V domains shown) VH: EVQLVESGGGLVQPGGSLRLSCVASGFNFRIYAMSWVRQAPGKGPEWVSGISGSGDNTYYAASVKGRFTVSRDNSKNTLYLQMTSLRAEDTAVFYCARGWELLNYWGQGTLVTVSS VL: DIQMTQSPSSLSASVGDRVTITCRASLDIGNFLAWFQQKPGTAPKSLIYSASSLQTGVPSKFSGSGSGTDFTLTISSLQPEDFATYYCQQYNSYPPTFGPGTKVDIKR", "labelValue": "zone 2"}
{"binder": "H1H3330P (antibody, V domains shown) VH: QVQLVESGGGVVQPGGSLRLSCAASGFTFSSYAMHWVRQAPGKGLEWVAIIWFDGSNEDYADSVKGRFTISRDNSKNMVYLQINSLRAEDTAVYYCARSANWNYEGGPLFDYWGQGTLVTVSS VL: DIQMTQSPSSLSASVGDRVTITCRASQTISTFLNWYQQKPGKGPELLIYTASSLQSGVPSRFSGSGSGTDFALTISSLQPEDFATYYCQQNYNDPPTFGQGTRLEIKR", "labelValue": "zone 3"}

Hey, which category is H2M3124N (antibody, V domains shown, also called H2aM3124N; H1M3124N) VH: EIQLIESGGDMVQPGGSLRLSCAASGISLNSYEMNWVRQTPGMGLEWISHISSSGTSIYYANSVKGRFTIFRDSAKNSLLLQMNSLRAEDTAIYYCARERYDHSGYYYLGMDVWGLGTTVTVSS VL: DIQMTQSPSTLSASLGDRVTITCRASQNIDNWMAWYQQKVGKAPKLLIYRASTLETGVPSRFGGSGFGTEFTLTISSLQPGDFATYYCQEYNSYFRTFGQGTKVEIK in, do you know?
zone 1

Sort H1M3117N (antibody, V domains shown) VH: EVQLLESGGGLAQPGGSLRLSCAASGFNFGTHDMSWVRQAPGKGLEWVSGLTSTGGSASSADSVKGRFTISRDNSKNILYLQMNSLRAEDTAVYYCAKTFNWNSYFDYWGQGTLVTVSS VL: EIVLTQSPGTLSLSPGERATLSCRASQSISTYYLAWYQQKPDQPPRLLIYGTSSRATGIPDRFSGSGSGTDFTLTISRLDPEDFAVYYCQQYGNSLYTFGQGTKLEIK into one of the categories.
zone 1

Exam item: assign H1H3347P (antibody, V domains shown) VH: EVQLVESGGGLVQPGGSLRLSCVASGFTFTSYAMSWVRQAPGRGLQWVSAIGGSGDSIYYADSVKGRFTISRDNSKNTLYLQMDSLRAEDTAVYYCARGWELLNYWGQGTLVTVSS VL: DIQMTQSPSSLSASVGDRVTITCRASQDIGNFLAWFQQKPGKAPKSLIYAASSLKSGVPSKISGSGSGTDFTLTINSLQPEDFATYYCQQYNIYPPTFGPGTKVDIKR to the correct category.
zone 3

Which category does the recorded binding (RU) put H1H3324P (antibody, V domains shown) VH: EVQLVESGGGLVQPGGSLRLSCAASGFTFSSYDMHWVRQVIGKGLEWVSAIGTVGDTYYAGSVKGRFTISRENAKNSLYLQMNSLRAGDTAVYYCARDRGGANIYSFYYGMDVWGQGTTVTVSS VL: DIQMTQSPSSLSVSVGDRVTITCRASQDISNYLAWYQQKPGKVPKLLIYAASTLQSGVPSRFSGSGSGTDFTLTISSLQPEDVATYFCQKYNSAPFTFGPGTKVDIKR in?
zone 3

Category of H2M3121N (antibody, V domains shown, also called H2aM3121N; H1M3121N) VH: EVQLVESGGDLVQPGGSLRLSCAASGVTFRTYEMNWVRQAPGKGLEWISHISSSGDIIYYTKSVKGRFTISRDNAKNSLFLQMTSLRAEDTAVYYCARERYSQYGYYYFGMDVWGQGTTVTVSS VL: DIQMTQSPSTLSASIGDRVTITCRASQNTDKWMAWYQQKAGKAPKLLIYKASILESGVPSRFSGSGSGTEFTLTISSLQPDDFATYYCQEYNTYFRAFGQGTKVETR , please.
zone 1

Which binding (RU) band matches H1H3328P (antibody, V domains shown) VH: EVQLVESGGGLVQPGGSLTLSCAASRFTFSNYDMHWVRQATGKGLEWVSAIGTVGDTYYAGSVKGRFTISRDDAKNSLYLQMNSLRAGDTAVYYCARDRGGAGTYSFYYGMDVWGQGTTVTVSS VL: DIQMTQSPSSLSASVGDRVTITCRASQDISNYLAWYQQKPGKVPKLLIYAASTLQSGVPSRFSGSGSGTDFTLTVSSLQPEDVATYYCQKYTSAPFTFGPGTKVDIKR ?
zone 3

GET /class?item= H1H3335P (antibody, V domains shown) VH: EVQLVESGGGLVRPGGSLRLSCAASGFTFRIYAMSWVRQAPGKGLEWVSGISGSGDNTYYTDSVKGRFIISRDNSKSTLYLQMNSLRAEDTAVYYCARGWELLNYWGQGTLVTVSS VL: DIQMTQSPSSLSAFVGDRVTITCRASQDISNHLAWFQQKPGKVPKSLIYAASSLQSGVPSKFSGSGSGTDFTLTISSLQPEDFATYYCQQYGLYPPTFGPGTKVDIKR
zone 2
